Data provenance: patent US9073940B2

# Test system: 4 PI3K isoforms (Human recombinant GST-PI3K)
# experimentalDetails: PI3K scintillation proximity assay, best IC50 obtained with the four isoforms (alpha, beta, delta, gamma)
# Format: biochemical
# appliedConditions: best IC50 obtained with the four isoforms of PI3K; read-out: Best potency measured on the 4 PI3K isoforms
Measured IC50 values are reported for all entries that follow.
Unit nM implied. Number only.

Examples with their reported IC50 follow.
CC1COCCN1Cc1ccc(-n2nc(C(=O)N3CCOCC3)c3c2-c2ccccc2S(=O)(=O)C3)cc1 (centres unmarked)    180
CC(C)CCN1CCCC(n2nc(C(=O)N3CCOCC3)c3c2-c2ccccc2S(=O)(=O)C3)C1 (centres unmarked)    138
O=C(c1nn(C2CCCN(CC3CCOC3)C2)c2c1CS(=O)(=O)c1ccccc1-2)N1CCOCC1 (centres unmarked)    98

What value of IC50 has been recorded for this entry: `Cc1nnc(-c2cccc(-n3nc(C(=O)N4CCOCC4)c4c3-c3ccccc3S(=O)(=O)C4)c2)s1` 661

What value of IC50 has been recorded for this entry: CC1(C)CN(CCN2CCC[C@H](n3nc(C(=O)N4CCOCC4)c4c3-c3ccccc3S(=O)(=O)C4)C2)CCO1 (single isomer, unassigned) 73

What value of IC50 has been recorded for this entry: `O=C(c1nn(-c2ccc(CN3CCOCC3)cc2)c2c1CS(=O)(=O)c1ncccc1-2)N1CCOCC1` 400

What value of IC50 has been recorded for this entry: `CCCn1nc(C(=O)N2CCOCC2)c2c1-c1ccccc1S(=O)(=O)C2` 641

What value of IC50 has been recorded for this entry: `O=C(c1nn(-c2ccc(F)cc2)c2c1CS(=O)(=O)c1ccccc1-2)N1CCOCC1` 373

###

# Tested on: 4 PI3K isoforms (Human recombinant GST-PI3K)
# experimentalDetails: PI3K scintillation proximity assay, best IC50 obtained with the four isoforms (alpha, beta, delta, gamma)
# Format: biochemical
# appliedConditions: best IC50 obtained with the four isoforms of PI3K; read-out: Best potency measured on the 4 PI3K isoforms
pIC50: −log10 of the molar value.
The label depends only on pIC50: y if it is at least 7, n if it is smaller.

Examples with answers:
CC(C)(C)OC(=O)N1CCC(n2nc(C(=O)N3CCOCC3)c3c2-c2ccccc2S(=O)(=O)C3)CC1    n
COC1CN(CCN2CCC[C@H](n3nc(C(=O)N4CCOCC4)c4c3-c3ccccc3S(=O)(=O)C4)C2)C1 (stereo in doubt)    y
COCCN1CCCC(n2nc(C(=O)N3CCOCC3)c3c2-c2ccccc2S(=O)(=O)C3)C1 (stereo not drawn)    n

Test whether the compound O=C(c1nn(C2CCCN(CC3CCOC3)C2)c2c1CS(=O)(=O)c1c(F)cccc1-2)N1CCOCC1 (stereo not drawn) records pIC50 of 7 or higher. y

Test whether the compound `O=C(c1nn(-c2ccccc2)c2c1CS(=O)(=O)c1ccc(CN3CCOCC3)cc1-2)N1CCOCC1` records pIC50 of 7 or higher. n

Test whether the compound `CCc1nc(-c2cccc(-n3nc(C(=O)N4CCOCC4)c4c3-c3ccccc3S(=O)(=O)C4)c2)no1` records pIC50 of 7 or higher. n

Test whether the compound O=C(c1nn([C@H]2CCCN(C3CCCNC3)C2)c2c1CS(=O)(=O)c1ccccc1-2)N1CCOCC1 (stereo partly drawn) records pIC50 of 7 or higher. y

Test whether the compound `COCc1noc(-c2cccc(-n3nc(C(=O)N4CCOCC4)c4c3-c3ccccc3S(=O)(=O)C4)c2)n1` records pIC50 of 7 or higher. n

Test whether the compound `Cc1ccc(-n2nc(C(=O)N3CCOCC3)c3c2-c2ccccc2S(=O)(=O)C3)cc1` records pIC50 of 7 or higher. n

Test whether the compound O=C(c1nn(-c2ccccc2)c2c1CS(=O)(=O)c1ccccc1-2)N1CCOC(CO)C1 (stereo not drawn) records pIC50 of 7 or higher. n

Test whether the compound `Cc1nc2ccc(-n3nc(C(=O)N4CCOCC4)c4c3-c3ccccc3S(=O)(=O)C4)cc2s1` records pIC50 of 7 or higher. n

Test whether the compound `CN(C)c1ccc2c(c1)S(=O)(=O)Cc1c(C(=O)N3CCOCC3)nn(-c3ccccc3)c1-2` records pIC50 of 7 or higher. n

Test whether the compound `CNc1cccc2c1S(=O)(=O)Cc1c(C(=O)N3CCOCC3)nn(-c3ccccc3)c1-2` records pIC50 of 7 or higher. n

###

# Test system: 4 PI3K isoforms (Human recombinant GST-PI3K)
# experimentalDetails: PI3K scintillation proximity assay, best IC50 obtained with the four isoforms (alpha, beta, delta, gamma)
# Type: biochemical
# appliedConditions: best IC50 obtained with the four isoforms of PI3K; read-out: Best potency measured on the 4 PI3K isoforms
metric: pIC50
Give only the number. pIC50 is defined as minus log10 of concentration in molar units.

NC(=O)c1cccc(-n2nc(C(=O)N3CCOCC3)c3c2-c2ccccc2S(=O)(=O)C3)c1    6.02
O=C(c1nn(C2CCOC2)c2c1CS(=O)(=O)c1c(F)cccc1-2)N1CCOCC1 (stereo not shown)    6.45

What value of pIC50 has been recorded for this entry: `O=C(c1cccc(-n2nc(C(=O)N3CCOCC3)c3c2-c2ccccc2S(=O)(=O)C3)c1)N1CCCCC1` 6.74

What value of pIC50 has been recorded for this entry: O=C(c1nn([C@H]2CCCN(C3CCCOC3)C2)c2c1CS(=O)(=O)c1c(F)cccc1-2)N1CCOCC1 (stereo in doubt) 7.60

###

# Test system: 4 PI3K isoforms (Human recombinant GST-PI3K)
# experimentalDetails: PI3K scintillation proximity assay, best IC50 obtained with the four isoforms (alpha, beta, delta, gamma)
# Type: biochemical
# appliedConditions: best IC50 obtained with the four isoforms of PI3K; read-out: Best potency measured on the 4 PI3K isoforms
metric: log10(IC50) (log10 of the value in nM)
Each number you see is log10 of IC50, and the unit inside the log is nM.

Examples with their reported log10(IC50) follow.
Cn1nc(C(=O)N2CCOCC2)c2c1-c1cccc(F)c1S(=O)(=O)C2    2.84
CC1COCCN1C(=O)c1nn(-c2ccccc2)c2c1CS(=O)(=O)c1ccccc1-2 (stereo not drawn)    4.14

What value of log10(IC50) has been recorded for this entry: O=C(c1nn([C@H]2CCCN(C3CCOCC3)C2)c2c1CS(=O)(=O)c1c(F)cccc1-2)N1CCOCC1 (stereo in doubt) 1.11

What value of log10(IC50) has been recorded for this entry: `Cc1ccc2c(c1)S(=O)(=O)Cc1c(C(=O)N3CCOCC3)nn(-c3ccccc3)c1-2` 3.26

What value of log10(IC50) has been recorded for this entry: COCCCN1CCC(n2nc(C(=O)N3CCOCC3)c3c2-c2ccccc2S(=O)(=O)C3)C1 (stereo not drawn) 2.97

What value of log10(IC50) has been recorded for this entry: O=C(c1nn([C@H]2CCCN(C3CCCOC3)C2)c2c1CS(=O)(=O)c1ncccc1-2)N1CCOCC1 (single isomer, unassigned) 1.56

What value of log10(IC50) has been recorded for this entry: `CC(C)(c1ccc(-n2nc(C(=O)N3CCOCC3)c3c2-c2ccccc2S(=O)(=O)C3)cc1)N1CCOCC1` 2.77

###

# System: 4 PI3K isoforms (Human recombinant GST-PI3K)
# experimentalDetails: PI3K scintillation proximity assay, best IC50 obtained with the four isoforms (alpha, beta, delta, gamma)
# Assay type: biochemical
# appliedConditions: best IC50 obtained with the four isoforms of PI3K; read-out: Best potency measured on the 4 PI3K isoforms
metric: pIC50
Give only the number. pIC50 is defined as minus log10 of concentration in molar units.

COc1ccc2c(c1)S(=O)(=O)Cc1c(C(=O)N3CCOCC3)nn([C@H]3CCCN(CCN4CCC(F)CC4)C3)c1-2 (single isomer, unassigned) [Example 384]    7.72

What value of pIC50 has been recorded for this entry: O=C(c1nn(-c2ccc3c(c2)OCCO3)c2c1CS(=O)(=O)c1ccccc1-2)N1CCOCC1 [Example 23] 6.17

What value of pIC50 has been recorded for this entry: CCn1nc(C(=O)N2CCOCC2)c2c1-c1ccccc1S(=O)(=O)C2 [Example 37] 6.22

What value of pIC50 has been recorded for this entry: O=C(c1nn(C2CCN(CCCl)C2)c2c1CS(=O)(=O)c1ccccc1-2)N1CCOCC1 (stereo not shown) [Example 274] 6.52

###

Measured IC50 values are reported for all entries that follow.
# System: 4 PI3K isoforms (Human recombinant GST-PI3K)
# experimentalDetails: PI3K scintillation proximity assay, best IC50 obtained with the four isoforms (alpha, beta, delta, gamma)
# Assay type: biochemical
# appliedConditions: best IC50 obtained with the four isoforms of PI3K; read-out: Best potency measured on the 4 PI3K isoforms
Unit nM implied. Number only.

Examples with their reported IC50 follow.
CS(=O)(=O)N1CCC(n2nc(C(=O)N3CCOCC3)c3c2-c2ccccc2S(=O)(=O)C3)CC1    2100
N#Cc1cccc(-n2nc(C(=O)N3CCOCC3)c3c2-c2ccccc2S(=O)(=O)C3)c1    376
COc1ccc(-n2nc(C(=O)N3CCOCC3)c3c2-c2ccccc2S(=O)(=O)C3)cc1    749
O=C(c1nn(C2CCCN(c3cccnc3)C2)c2c1CS(=O)(=O)c1ccccc1-2)N1CCOCC1 (single isomer, unassigned)    48
O=C(Nc1cccc(-n2nc(C(=O)N3CCOCC3)c3c2-c2ccccc2S(=O)(=O)C3)c1)N1CCOCC1    3590

What value of IC50 has been recorded for this entry: CN(C)CCN1CCCC(n2nc(C(=O)N3CCOCC3)c3c2-c2ccccc2S(=O)(=O)C3)C1 (stereo not shown) 72

What value of IC50 has been recorded for this entry: `O=C(c1nn(-c2cccc(-c3ccccc3)c2)c2c1CS(=O)(=O)c1ccccc1-2)N1CCOCC1` 764
